test system: Mycobacterium tuberculosis H37Rv; assay: Inhibition of MmpL3 in clinical isolates of drug sensitive Mycobacterium tuberculosis H37Rv after 7 to 14 days by alamar blue assay
Consider the following compounds and their measured MIC90 readings.

Consider `COc1cc(OC)c2cc(C(=O)NC3CCCCCCC3)[nH]c2c1` . Its measured MIC90 is 0.19 µM

* * *

test: Oral bioavailability in BALB/c mouse at 100 mg/kg administered as single dose for 30 to 120 mins followed by Mycobacterium tuberculosis H37Rv addition to compound treated serum incubated for 7 days by alamar blue reagent based serum inhibition titration assay; assay type: ADME, organism-based; details: in vivo
VALUE KIND: Drug uptake

                               entry_smiles      result
0  O=C(NC1CCC2(CCCCC2)CC1)c1cc2c(Cl)cc(Cl)cc2[nH]1  Not Active
1  O=C(NC12CC3CC(CC(C3)C1)C2)c1cc2c(Cl)cc(Cl)cc2[nH]1  Not Active
2  O=C(NC1CCC2(CCCCC2)CC1)c1cc2c(F)cc(F)cc2[nH]1  Not Active
